Species on record: Homo sapiens
Assay: Concentration required to reduce ADP-induced platelet aggregation in platelet rich plasma by 50%.
Format: functional
Measurement type: IC50

Q) Recorded IC50 for N=C(N)c1ccc(C(=O)Nc2ccc3c(c2)CCN(CC(=O)O)C3=O)cc1 , please?
A) 90 nM

====

Target: Integrin alpha-IIb/beta-3 (Homo sapiens, UniProt P05106+P08514)
Sequence (P05106 27-788 limits assumed): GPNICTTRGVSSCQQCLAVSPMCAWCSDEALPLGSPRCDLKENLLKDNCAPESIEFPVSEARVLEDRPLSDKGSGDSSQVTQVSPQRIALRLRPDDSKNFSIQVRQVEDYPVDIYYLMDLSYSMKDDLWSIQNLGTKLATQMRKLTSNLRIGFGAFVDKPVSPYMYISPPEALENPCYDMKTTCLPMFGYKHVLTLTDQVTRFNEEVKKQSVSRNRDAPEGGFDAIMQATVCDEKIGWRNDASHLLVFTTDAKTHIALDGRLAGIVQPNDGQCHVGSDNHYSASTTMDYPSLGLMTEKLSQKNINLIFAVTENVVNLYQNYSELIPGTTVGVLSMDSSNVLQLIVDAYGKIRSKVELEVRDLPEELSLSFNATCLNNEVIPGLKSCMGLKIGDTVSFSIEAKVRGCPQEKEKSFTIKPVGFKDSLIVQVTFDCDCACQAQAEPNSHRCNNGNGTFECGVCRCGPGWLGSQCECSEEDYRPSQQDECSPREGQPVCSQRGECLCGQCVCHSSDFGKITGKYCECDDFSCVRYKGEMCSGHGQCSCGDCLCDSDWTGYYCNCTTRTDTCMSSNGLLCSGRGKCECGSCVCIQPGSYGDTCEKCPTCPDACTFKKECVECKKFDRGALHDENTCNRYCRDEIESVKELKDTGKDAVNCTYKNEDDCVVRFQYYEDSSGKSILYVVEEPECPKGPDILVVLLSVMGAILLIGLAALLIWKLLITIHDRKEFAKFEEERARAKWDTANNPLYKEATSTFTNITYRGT
Sequence (P08514 32-887 limits assumed): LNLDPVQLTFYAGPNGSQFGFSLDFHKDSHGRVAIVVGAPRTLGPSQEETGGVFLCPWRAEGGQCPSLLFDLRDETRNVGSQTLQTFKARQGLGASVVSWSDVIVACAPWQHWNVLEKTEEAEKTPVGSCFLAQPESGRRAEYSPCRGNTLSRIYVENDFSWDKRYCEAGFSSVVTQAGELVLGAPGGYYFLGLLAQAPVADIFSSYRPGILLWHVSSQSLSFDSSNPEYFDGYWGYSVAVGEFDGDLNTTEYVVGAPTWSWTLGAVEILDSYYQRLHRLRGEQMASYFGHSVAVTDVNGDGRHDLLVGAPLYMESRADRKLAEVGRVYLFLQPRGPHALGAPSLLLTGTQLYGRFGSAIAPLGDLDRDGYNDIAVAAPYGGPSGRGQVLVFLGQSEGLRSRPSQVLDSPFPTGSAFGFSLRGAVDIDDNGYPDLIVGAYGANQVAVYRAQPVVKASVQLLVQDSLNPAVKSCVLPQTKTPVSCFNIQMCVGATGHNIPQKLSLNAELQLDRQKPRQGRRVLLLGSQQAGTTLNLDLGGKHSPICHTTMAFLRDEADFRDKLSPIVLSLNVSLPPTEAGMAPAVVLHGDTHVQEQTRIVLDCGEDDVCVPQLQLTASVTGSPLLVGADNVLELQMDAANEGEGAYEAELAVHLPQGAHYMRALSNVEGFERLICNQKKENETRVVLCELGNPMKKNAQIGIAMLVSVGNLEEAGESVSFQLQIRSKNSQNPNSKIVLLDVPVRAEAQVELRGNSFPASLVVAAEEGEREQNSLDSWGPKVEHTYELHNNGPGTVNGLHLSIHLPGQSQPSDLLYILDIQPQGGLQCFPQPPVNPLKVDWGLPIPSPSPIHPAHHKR
Sequence (P08514 891-1039 limits assumed): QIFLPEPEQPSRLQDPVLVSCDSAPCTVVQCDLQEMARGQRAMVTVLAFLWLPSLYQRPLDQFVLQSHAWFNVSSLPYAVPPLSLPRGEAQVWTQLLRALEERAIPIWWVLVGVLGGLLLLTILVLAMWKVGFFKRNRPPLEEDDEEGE
Assay: Inhibition of fibrinogen binding to purified human alpha IIb beta-3 integrin (GP IIb-IIIa)
So basically: is IC50 under 600 nM? Then True. Not under? Then False.

Sample answers from the record:
Molecule: N=C(N)c1ccc(COc2ccc3c(c2)CN(CC(=O)O)C3=O)cc1
Cat: False
//
Molecule: N=C(N)c1ccc(COc2ccc3c(=O)n(CC(=O)O)ccc3c2)cc1
Cat: False
//
Molecule: N=C(N)c1ccc(COc2ccc3c(c2)CC(=O)N(CC(=O)O)C3)cc1
Cat: False
//
Molecule: N=C(N)c1ccc(COc2ccc3c(c2)CCC(CC(=O)O)O3)cc1 (centres undefined)
Cat: True

Q) Hello, is IC50 of the following molecule strictly smaller than 600 nM? N=C(N)c1ccc(COc2ccc3c(c2)CCC(CC(=O)O)C3)cc1 (centres undefined)
A) True

Q) How about N=C(N)c1ccc(COc2ccc3c(c2)CCC(CC(=O)O)C3=O)cc1 (centres undefined) ?
A) True

Q) How about N=C(N)c1ccc(C(=O)Nc2ccc3c(c2)CCC(CC(=O)O)O3)cc1 (centres undefined) ?
A) True

Q) How about N=C(N)c1ccc(COc2ccc(C(=O)NCC(=O)O)cc2)cc1 ?
A) False
